Reported values of pKd for individual entries
Biological target: HLA-A*02:02
Assay: IEDB peptide-MHC binding, purified MHC/competitive/radioactivity; filed as Kd, often an IC50 or EC50 that approximates it; bounds were set here for any values at or beyond the usual limits of such assays
Details: source organism: Vaccinia virus WR
pKd: −log10 of the molar value.
result type: pKd

* DAEFVMCLEA | 5.62
* SMTSDSKSI | 5.08
* VMPEKRNVV | 5.96
* GTSVIRSNI | 6.41
* FISPASISSV | 8.52
* AMLKSKNINI | 5.78
* SLKRFTHTTA | 6.05
* LITNTKSDNI | 5.65
* VQTLISLNSM | 5.81
* TINALVYFST | 4.85
* VQSVLRDISI | 7.11
* IINSVSIIL | 6.15
* IVNTTYDFLA | 5.90
* DIKYDNKLL | 5.85
* IISYIILFI | 8.56
* IISSKQYPA | 6.79
* FISYNRHNDT | 5.16
* TLISSDGARV | 6.85
* RAAIDRQVSV | 6.20
